Listed here: items and their measured fractional viability.
# System: TYKNU
# experiment description: fractional viability relative to vehicle; higher = less growth inhibition
# experimental context: 10uM; 72 h; genotype: sgCTRLA1 (non-targeting control)
Over roughly 2,000 compounds, “fractional viability relative to vehicle” has its median near 0.91; the lowest 2% begin near 0.045. This is one part of a sample in which the lowest values are shown more often than they occur.
Field format: numeric only.

Recorded results for 2 compounds are shown here.
[
  {
    "compound": "COC(=O)[C@H](Cc1ccccc1)NC(=O)[C@@H](N)CC(=O)O",
    "test system": "TYKNU",
    "numeric result": 0.985
  },
  {
    "compound": "CC(C)C[C@H](NC(=O)[C@H](CCc1ccccc1)NC(=O)CN1CCOCC1)C(=O)N[C@@H](Cc1ccccc1)C(=O)N[C@@H](CC(C)C)C(=O)[C@@]1(C)CO1",
    "test system": "TYKNU",
    "numeric result": 0.057
  }
]

query: Query for TYKNU: what fractional viability does the record show for O=C(O)CCNc1cc(N2CCc3ccccc3CC2)nc(-c2ccccn2)n1 ?
result: 0.738

query: Query for TYKNU: what fractional viability does the record show for C=CC(=O)Nc1ccc2ncnc(Nc3ccc(OCc4cccc(F)c4)c(Cl)c3)c2c1 ?
result: 0.0416

query: Query for TYKNU: what fractional viability does the record show for CN1C(C(=O)Nc2ccccn2)=C(O)c2sc(Cl)cc2S1(=O)=O ?
result: 0.996

query: Query for TYKNU: what fractional viability does the record show for COc1ccc(C[C@H](NC(=O)[C@H](C)NC(=O)CN2CCOCC2)C(=O)N[C@@H](Cc2ccccc2)C(=O)[C@@]2(C)CO2)cc1 ?
result: 0.0416

query: Query for TYKNU: what fractional viability does the record show for CCCCc1nc2cc(/C=C/C(=O)NO)ccc2n1CCN(CC)CC [Pracinostat (SB939)] ?
result: 0.0879

query: Query for TYKNU: what fractional viability does the record show for Nc1nc(Nc2ccc3c(c2)CCC(N2CCCC2)CC3)nn1-c1cc2c(nn1)-c1ccccc1CCC2 (stereo not drawn) ?
result: 0.0259

----------
# System: TYKNU
# experiment description: fractional viability relative to vehicle; TYKNU is a high-grade serous ovarian cancer line; higher = less growth inhibition
# experimental context: 10uM; 72 h; genotype: sgCTRLA1 (non-targeting control)
Structures can show the parent of a compound that is named as a salt. In all, about 2,000 compounds were measured (“fractional viability relative to vehicle”: median about 0.91, lowest 2% from about 0.045 on). This is one part of a sample in which the lowest values are shown more often than they occur.
Our labelling divides records by fractional viability into ranges: LOW: < 0.7; MEDIUM: ≥ 0.7 and < 1; HIGH: ≥ 1

Examples with answers:
[
  {
    "molecule": "C[N+](C)(C)C[C@H](O)CC(=O)[O-]",
    "test system": "TYKNU",
    "class": "HIGH"
  },
  {
    "molecule": "COc1cc2ncnc(Sc3nnc(C)s3)c2cc1OC",
    "test system": "TYKNU",
    "class": "LOW"
  },
  {
    "molecule": "CCCCc1oc2ccccc2c1C(=O)c1cc(I)c(OCCN(CC)CC)c(I)c1 [Amiodarone HCl]",
    "test system": "TYKNU",
    "class": "MEDIUM"
  },
  {
    "molecule": "COc1ccc2c(c1)CCC1C2CCC2(C)C(NCCCCCCN3C(=O)C=CC3=O)CCC12 (stereo not drawn)",
    "test system": "TYKNU",
    "class": "MEDIUM"
  }
]

Pending molecule:
query: For the record O=C(N/N=C/c1ccc([N+](=O)[O-])o1)c1ccc(O)cc1 [Nifuroxazide] , report the class its fractional viability corresponds to.
result: LOW
